System: Streptococcus pyogenes SSI-9
Assay Notes: Antibacterial activity assay of bead-derived peptides (three concentrations)
Type: cell-based
Design: key: +++: inhibition by the 640-fold diluted peptide solution; ++: inhibition by the 160-fold diluted solution; +: inhibition by the 40-fold diluted solution; -: no inhibition
Measurement Context: S. pyogenes, bead-derived peptide solution, three concentrations
Where a SMILES comes first, the peptide text is derived from it. [ ]: non-standard residue; d: D form. The star is where a group is joined. NHCH2CH2OH = OCCN*; For = O=C*
Observed Property: antibacterial activity

CC(C)C[C@@H](NC(=O)[C@H](C)NC(=O)[C@H](NC(=O)[C@H](C)NC(=O)CNC(=O)[C@@H](NC=O)C(C)C)[C@H](C)O)C(=O)N[C@H](C(=O)N[C@H](CC(C)C)C(=O)N[C@@H](Cc1c[nH]c2ccccc12)C(=O)N[C@H](CC(C)C)C(=O)N[C@@H](Cc1c[nH]c2ccccc12)C(=O)N[C@@H](C(=O)N[C@@H](Cc1c[nH]c2ccccc12)C(=O)N[C@H](CC(C)C)C(=O)N[C@@H](Cc1c[nH]c2ccccc12)C(=O)NCCO)C(C)C)C(C)C [compound 1516] (For-VGA[dT]A[dL]V[dL]W[dL]W[dV]W[dL]W-NHCH2CH2OH) | -
CC(C)C[C@@H](NC(=O)[C@H](C)NC(=O)CNC(=O)[C@@H](NC=O)C(C)C)C(=O)N[C@@H](C)C(=O)N[C@@H](C(=O)N[C@H](C(=O)N[C@@H](C(=O)N[C@@H](Cc1c[nH]c2ccccc12)C(=O)N[C@H](CC(C)C)C(=O)N[C@@H](Cc1c[nH]c2ccccc12)C(=O)N[C@H](CC(C)C)C(=O)N[C@@H](Cc1c[nH]c2ccccc12)C(=O)N[C@@H](C(=O)N[C@@H](Cc1c[nH]c2ccccc12)C(=O)NCCO)C(C)C)[C@H](C)O)C(C)C)C(C)C [compound 200] (For-VGA[dL]A[dV]V[dT]W[dL]W[dL]W[dV]W-NHCH2CH2OH) | +
CC(C)C[C@@H](NC(=O)[C@H](C)NC(=O)[C@H](NC(=O)[C@H](C)NC(=O)CNC(=O)[C@@H](NC=O)C(C)C)C(C)C)C(=O)N[C@H](C(=O)N[C@@H](C(=O)N[C@@H](Cc1c[nH]c2ccccc12)C(=O)N[C@H](CC(C)C)C(=O)N[C@@H](Cc1c[nH]c2ccccc12)C(=O)N[C@@H](C(=O)N[C@@H](Cc1c[nH]c2ccccc12)C(=O)N[C@H](CC(C)C)C(=O)N[C@@H](Cc1c[nH]c2ccccc12)C(=O)NCCO)C(C)C)C(C)C)C(C)C [compound 10261] (For-VGA[dV]A[dL]V[dV]W[dL]W[dV]W[dL]W-NHCH2CH2OH) | +
CC(C)C[C@@H](NC(=O)[C@H](Cc1c[nH]c2ccccc12)NC(=O)[C@H](NC(=O)[C@H](Cc1c[nH]c2ccccc12)NC(=O)[C@@H](CC(C)C)NC(=O)[C@H](Cc1c[nH]c2ccccc12)NC(=O)[C@@H](CC(C)C)NC(=O)[C@@H](NC(=O)[C@H](NC(=O)[C@H](C)NC(=O)[C@H](NC(=O)[C@H](C)NC(=O)CNC(=O)[C@@H](NC=O)C(C)C)C(C)C)C(C)C)C(C)C)[C@H](C)O)C(=O)N[C@@H](Cc1c[nH]c2ccccc12)C(=O)NCCO [compound 10516] (For-VGA[dV]A[dV]V[dL]W[dL]W[dT]W[dL]W-NHCH2CH2OH) | -

* * *

System: Streptococcus pyogenes SSI-9
Assay Notes: Antibacterial activity assay of bead-derived peptides (three concentrations)
Type: cell-based
Parameters: key: +++: inhibition by the 640-fold diluted peptide solution; ++: inhibition by the 160-fold diluted solution; +: inhibition by the 40-fold diluted solution; -: no inhibition
Measurement Context: S. pyogenes, bead-derived peptide solution, three concentrations
Where a SMILES comes first, the peptide text is derived from it. [ ]: non-standard residue; d: D form. The star is where a group is joined. NHCH2CH2OH = OCCN*; For = O=C*
Observed Property: antibacterial activity

CNC(=O)C[C@@H](NC(=O)[C@H](Cc1c[nH]c2ccccc12)NC(=O)[C@H](NC(=O)[C@@H](NC(=O)[C@@H](CC(C)C)NC(=O)[C@H](C)NC(=O)[C@@H](CC(C)C)NC(=O)[C@H](C)NC(=O)CNC(=O)[C@@H](NC=O)C(C)C)C(C)C)C(C)C)C(=O)N[C@@H](Cc1c[nH]c2ccccc12)C(=O)N[C@H](CC(C)C)C(=O)N[C@@H](Cc1c[nH]c2ccccc12)C(=O)N[C@@H](C(=O)N[C@@H](Cc1c[nH]c2ccccc12)C(=O)NCCO)C(C)C [compound 3329] (For-VGA[dL]A[dL]V[dV]W[dD](NHMe)W[dL]W[dV]W-NHCH2CH2OH) | +
CNC(=O)C[C@@H](NC(=O)[C@@H](NC(=O)[C@@H](CC(C)C)NC(=O)[C@H](C)NC(=O)[C@@H](CC(C)C)NC(=O)[C@H](C)NC(=O)CNC(=O)[C@@H](NC=O)C(C)C)C(C)C)C(=O)N[C@@H](Cc1c[nH]c2ccccc12)C(=O)N[C@H](CC(C)C)C(=O)N[C@@H](Cc1c[nH]c2ccccc12)C(=O)N[C@@H](C(=O)N[C@@H](Cc1c[nH]c2ccccc12)C(=O)N[C@H](CC(C)C)C(=O)N[C@@H](Cc1c[nH]c2ccccc12)C(=O)NCCO)C(C)C [compound 173] (For-VGA[dL]A[dL]V[dD](NHMe)W[dL]W[dV]W[dL]W-NHCH2CH2OH) | -

* * *

Measurement Context: cell viability/%
Where a SMILES comes first, the peptide text is derived from it. [ ]: non-standard residue; d: D form. The star is where a group is joined. NHCH2CH2OH = OCCN*; For = O=C*
Observed Property: viability (%)
Output spec: scalar in %, unitless text.

CNC(=O)C[C@@H](NC(=O)[C@H](Cc1c[nH]c2ccccc12)NC(=O)[C@H](NC(=O)[C@H](Cc1c[nH]c2ccccc12)NC(=O)[C@@H](CC(C)C)NC(=O)[C@H](Cc1c[nH]c2ccccc12)NC(=O)[C@H](NC(=O)[C@@H](NC(=O)[C@@H](CC(C)C)NC(=O)[C@H](C)NC(=O)[C@@H](CC(C)C)NC(=O)[C@H](C)NC(=O)CNC(=O)[C@@H](NC=O)C(C)C)C(C)C)C(C)C)C(C)C)C(=O)N[C@@H](Cc1c[nH]c2ccccc12)C(=O)NCCO [compound 8516] (For-VGA[dL]A[dL]V[dV]W[dL]W[dV]W[dD](NHMe)W-NHCH2CH2OH) | 48.7

Challenge: Quick one: viability of CC(C)C[C@@H](NC(=O)[C@H](C)NC(=O)[C@H](NC(=O)[C@H](C)NC(=O)CNC(=O)[C@@H](NC=O)C(C)C)C(C)C)C(=O)N[C@H](C(=O)N[C@@H](C(=O)N[C@@H](Cc1c[nH]c2ccccc12)C(=O)N[C@H](CC(C)C)C(=O)N[C@@H](Cc1c[nH]c2ccccc12)C(=O)N[C@@H](C(=O)N[C@@H](Cc1c[nH]c2ccccc12)C(=O)N[C@@H](C(=O)N[C@@H](Cc1c[nH]c2ccccc12)C(=O)NCCO)[C@H](C)O)[C@H](C)O)C(C)C)C(C)C [compound 13040] (For-VGA[dV]A[dL]V[dV]W[dL]W[dT]W[dT]W-NHCH2CH2OH) ?
Response given: 100

* * *

Below is a list of entries, each paired with its recorded EC50 value.
Assay Notes: H+/Na+ transport assay of purified peptides
Measurement Context: read-out: EC50, H+/Na+ transport assay; 3rd experiment
Where a SMILES comes first, the peptide text is derived from it. [ ]: non-standard residue; d: D form. The star is where a group is joined. NHCH2CH2OH = OCCN*; For = O=C*
Output spec: scalar in nM, unitless text.

Consider the following illustrative entries.
CC(C)C[C@@H](NC(=O)[C@H](Cc1c[nH]c2ccccc12)NC(=O)[C@@H](CC(C)C)NC(=O)[C@H](Cc1c[nH]c2ccccc12)NC(=O)[C@@H](CC(C)C)NC(=O)[C@H](Cc1c[nH]c2ccccc12)NC(=O)[C@H](NC(=O)[C@@H](NC(=O)[C@H](NC(=O)[C@H](C)NC(=O)[C@H](NC(=O)[C@H](C)NC(=O)CNC(=O)[C@@H](NC=O)C(C)C)C(C)C)C(C)C)C(C)C)C(C)C)C(=O)N[C@@H](Cc1c[nH]c2ccccc12)C(=O)NCCO [A1] (For-VGA[dV]A[dV]V[dV]W[dL]W[dL]W[dL]W-NHCH2CH2OH) | 1.99
CC(C)C[C@@H](NC(=O)[C@H](C)NC(=O)[C@H](NC(=O)[C@H](C)NC(=O)CNC(=O)[C@@H](NC=O)C(C)C)[C@H](C)O)C(=O)N[C@H](C(=O)N[C@H](CC(C)C)C(=O)N[C@@H](Cc1c[nH]c2ccccc12)C(=O)N[C@@H](C(=O)N[C@@H](Cc1c[nH]c2ccccc12)C(=O)N[C@H](CC(C)C)C(=O)N[C@@H](Cc1c[nH]c2ccccc12)C(=O)N[C@@H](C(=O)N[C@@H](Cc1c[nH]c2ccccc12)C(=O)NCCO)C(C)C)[C@H](C)O)C(C)C [B21] (For-VGA[dT]A[dL]V[dL]W[dT]W[dL]W[dV]W-NHCH2CH2OH) | 1.32
CC(C)C[C@@H](NC(=O)[C@H](C)NC(=O)CNC(=O)[C@@H](NC=O)C(C)C)C(=O)N[C@@H](C)C(=O)N[C@@H](C(=O)N[C@H](C(=O)N[C@@H](C(=O)N[C@@H](Cc1c[nH]c2ccccc12)C(=O)N[C@H](CC(C)C)C(=O)N[C@@H](Cc1c[nH]c2ccccc12)C(=O)N[C@H](CC(C)C)C(=O)N[C@@H](Cc1c[nH]c2ccccc12)C(=O)N[C@H](CC(C)C)C(=O)N[C@@H](Cc1c[nH]c2ccccc12)C(=O)NCCO)C(C)C)C(C)C)C(C)C [compound 1, Gramicidin A] (For-VGA[dL]A[dV]V[dV]W[dL]W[dL]W[dL]W-NHCH2CH2OH) | 4.81

Challenge: Quick one: EC50 of CNC(=O)C[C@@H](NC(=O)[C@@H](NC(=O)[C@@H](CC(C)C)NC(=O)[C@H](C)NC(=O)[C@@H](CC(C)C)NC(=O)[C@H](C)NC(=O)CNC(=O)[C@@H](NC=O)C(C)C)C(C)C)C(=O)N[C@@H](Cc1c[nH]c2ccccc12)C(=O)N[C@H](CC(C)C)C(=O)N[C@@H](Cc1c[nH]c2ccccc12)C(=O)N[C@H](CC(C)C)C(=O)N[C@@H](Cc1c[nH]c2ccccc12)C(=O)N[C@@H](C(=O)N[C@@H](Cc1c[nH]c2ccccc12)C(=O)NCCO)[C@H](C)O [B22] (For-VGA[dL]A[dL]V[dD](NHMe)W[dL]W[dL]W[dT]W-NHCH2CH2OH) ?
Response given: 1.94
